assay.procedure: Multiplexed cytotoxicity assay
Type: cell-based
reported.conditions: human, SKOV3 cells (ovary carcinoma), read-out: Cytotoxic EC50
recorded.metric: EC50 at 72 h

Please supply the value of reported EC50 at 72 h for the item C[C@@H]1N[C@H](CNC(=O)c2cccc3c2C(=O)c2ccccc2-3)[C@@H](O)[C@H](O)[C@@H]1O [Compound II]
> 100 µM

====

assay.procedure: Multiplexed cytotoxicity assay
Type: cell-based
reported.conditions: human, U-87 MG cells (brain blastoma), read-out: Cytotoxic EC50
recorded.metric: EC50 at 72 h (µM)
Write the number in µM without appending the unit.

Please supply the value of reported EC50 at 72 h for the item C[C@@H]1N[C@H](CNC(=O)c2cccc3c2C(=O)c2ccccc2-3)[C@@H](O)[C@H](O)[C@@H]1O [Compound II]
34

====

assay.procedure: Multiplexed cytotoxicity assay
Assay type: cell-based
reported.conditions: human, HUMSC cells (normal mesenchymal stem cells), read-out: Cytotoxic EC50
recorded.metric: EC50 at 72 h (µM)
Write the number in µM without appending the unit.

Please supply the value of reported EC50 at 72 h for the item C[C@@H]1N[C@H](CNC(=O)c2cccc3c2C(=O)c2ccccc2-3)[C@@H](O)[C@H](O)[C@@H]1O
9

====

assay.procedure: Multiplexed cytotoxicity assay
Format: cell-based
reported.conditions: human, MDA-MB-231 cells (breast carcinoma), MDA-MB-231, breast carcinoma, read-out: Cytotoxic EC50
recorded.metric: EC50 at 72 h (µM)
Write the number in µM without appending the unit.

Please supply the value of reported EC50 at 72 h for the item C[C@@H]1N[C@H](CNC(=O)c2cccc3c2C(=O)c2ccccc2-3)[C@@H](O)[C@H](O)[C@@H]1O [Compound II]
44

====

assay.procedure: Multiplexed cytotoxicity assay
Type: cell-based
reported.conditions: human, HeLa cells (cervix carcinoma), read-out: Cytotoxic EC50
recorded.metric: EC50 at 72 h (µM)
Write the number in µM without appending the unit.

Please supply the value of reported EC50 at 72 h for the item C[C@@H]1N[C@H](CNC(=O)c2cccc3c2C(=O)c2ccccc2-3)[C@@H](O)[C@H](O)[C@@H]1O
47

====

assay.procedure: Multiplexed cytotoxicity assay
Format: cell-based
reported.conditions: human, HT-1080 cells (connective sarcoma), HT-1080, connective sarcoma, read-out: Cytotoxic EC50
recorded.metric: EC50 at 72 h (µM)
Write the number in µM without appending the unit.

Please supply the value of reported EC50 at 72 h for the item C[C@@H]1N[C@H](CNC(=O)c2cccc3c2C(=O)c2ccccc2-3)[C@@H](O)[C@H](O)[C@@H]1O
21

====

assay.procedure: Multiplexed cytotoxicity assay
Format: cell-based
reported.conditions: human, HPH (normal primary hepatocytes), normal primary hepatocyte, read-out: Cytotoxic EC50
recorded.metric: EC50 at 72 h

Please supply the value of reported EC50 at 72 h for the item C[C@@H]1N[C@H](CNC(=O)c2cccc3c2C(=O)c2ccccc2-3)[C@@H](O)[C@H](O)[C@@H]1O [Compound II]
> 100 µM

====

assay.procedure: Multiplexed cytotoxicity assay
Assay type: cell-based
reported.conditions: human, LNCaP cells (prostate carcinoma), read-out: Cytotoxic EC50
Procedure: To assess the cytotoxicity of compound II (see Example 2) in cancer and normal cells, the cells were grown in RPMI1640, 10% FBS, 2 mM L-alanyl-L-Glutamine, 1 mM Na Pyruvate or a special medium in a humidified atmosphere of 5% CO2 at 37° C. […] After a 72 hour incubation period, cells were fixed and stained with fluorescently labeled antibodies and nuclear dye to allow visualization of nuclei, apoptotic cells and mitotic cells. Apoptotic cells were detected using an anti-active caspase-3 antibody. […]
recorded.metric: EC50 at 72 h (µM)
Write the number in µM without appending the unit.

Please supply the value of reported EC50 at 72 h for the item C[C@@H]1N[C@H](CNC(=O)c2cccc3c2C(=O)c2ccccc2-3)[C@@H](O)[C@H](O)[C@@H]1O
54

====

assay.procedure: Multiplexed cytotoxicity assay
Assay type: cell-based
reported.conditions: human, HT-29 cells (colon carcinoma), HT-29, colon carcinoma, read-out: Cytotoxic EC50
recorded.metric: EC50 at 72 h (µM)
Write the number in µM without appending the unit.

Please supply the value of reported EC50 at 72 h for the item C[C@@H]1N[C@H](CNC(=O)c2cccc3c2C(=O)c2ccccc2-3)[C@@H](O)[C@H](O)[C@@H]1O
31

====

assay.procedure: Multiplexed cytotoxicity assay
Assay type: cell-based
reported.conditions: human, K562 cells (blood leukemia), read-out: Cytotoxic EC50
recorded.metric: EC50 at 72 h (µM)
Write the number in µM without appending the unit.

Please supply the value of reported EC50 at 72 h for the item C[C@@H]1N[C@H](CNC(=O)c2cccc3c2C(=O)c2ccccc2-3)[C@@H](O)[C@H](O)[C@@H]1O [Compound II]
98

====

assay.procedure: Multiplexed cytotoxicity assay
Assay type: cell-based
reported.conditions: human, NHDF cells (normal skin), read-out: Cytotoxic EC50
recorded.metric: EC50 at 72 h (µM)
Write the number in µM without appending the unit.

Please supply the value of reported EC50 at 72 h for the item C[C@@H]1N[C@H](CNC(=O)c2cccc3c2C(=O)c2ccccc2-3)[C@@H](O)[C@H](O)[C@@H]1O [Compound II]
22

====

assay.procedure: Multiplexed cytotoxicity assay
Assay type: cell-based
reported.conditions: human, A549 cells (lung carcinoma), read-out: Cytotoxic EC50
Protocol: To assess the cytotoxicity of compound II (see Example 2) in cancer and normal cells, the cells were grown in RPMI1640, 10% FBS, 2 mM L-alanyl-L-Glutamine, 1 mM Na Pyruvate or a special medium in a humidified atmosphere of 5% CO2 at 37° C. […] After a 72 hour incubation period, cells were fixed and stained with fluorescently labeled antibodies and nuclear dye to allow visualization of nuclei, apoptotic cells and mitotic cells. Apoptotic cells were detected using an anti-active caspase-3 antibody. […]
recorded.metric: EC50 at 72 h
Entry format: amount then unit.

Please supply the value of reported EC50 at 72 h for the item C[C@@H]1N[C@H](CNC(=O)c2cccc3c2C(=O)c2ccccc2-3)[C@@H](O)[C@H](O)[C@@H]1O [Compound II]
29 µM

====

assay.procedure: Multiplexed cytotoxicity assay
Type: cell-based
reported.conditions: human, HRPTEpiC cells (normal renal), read-out: Cytotoxic EC50
recorded.metric: EC50 at 72 h
Entry format: amount then unit.

Please supply the value of reported EC50 at 72 h for the item C[C@@H]1N[C@H](CNC(=O)c2cccc3c2C(=O)c2ccccc2-3)[C@@H](O)[C@H](O)[C@@H]1O
72 µM

# credit: patent US10308607B2
